Values compiled from ChEMBL document CHEMBL2412975.

# measurement-notes: Apparent clearance in human liver microsomes
# Assay type: ADME, Microsome
# study-conditions: read-out: CLH(app)
Listing of recorded CLint scaled by entry.
outcome-measure: CLint scaled

- compound: "Cc1nnc(C[C@H]2CC[C@H](c3ccc(N4CCOc5ncnc(N)c5C4=O)cc3)CC2)[nH]1"
  result: "< 8 mL/min/kg"
- compound: "Cc1nnc(C[C@H]2CC[C@H](c3ccc(N4CCOc5ncnc(N)c5C4=O)cc3)CC2)n1C"
  result: "< 8 mL/min/kg"
- compound: "Nc1ccnc2c1C(=O)N(c1ccc([C@H]3CC[C@H](CC(=O)O)CC3)cc1)CCO2"
  result: "8.4 mL/min/kg"
- compound: "Cc1nnc(C[C@H]2CC[C@H](c3ccc(N4CCOc5ncnc(N)c5C4=O)cc3)CC2)o1"
  result: "< 8 mL/min/kg"
- compound: "Nc1ncnc2c1CN(c1ccc([C@H]3CC[C@H](CCO)CC3)cc1)CCO2"
  result: "11 mL/min/kg"
- compound: "CC(C)(N)C[C@H]1CC[C@H](c2ccc(N3CCOc4ncnc(N)c4C3=O)cc2)CC1"
  result: "12 mL/min/kg"
- compound: "Nc1ncnc2c1C(=O)N(c1ccc(C3CCN(C(=O)c4ccccc4)CC3)cc1)CCO2"
  result: "< 8 mL/min/kg"
- compound: "CC(C)(O)C[C@H]1CC[C@H](c2ccc(N3CCOc4ncnc(N)c4C3=O)cc2)CC1"
  result: "< 8 mL/min/kg"
- compound: "CC(C)[C@H](CO)NC(=O)C[C@H]1CC[C@H](c2ccc(N3CCOc4ncnc(N)c4C3=O)cc2)CC1"
  result: "< 8 mL/min/kg"
- compound: "Cc1noc(C[C@H]2CC[C@H](c3ccc(N4CCOc5ncnc(N)c5C4=O)cc3)CC2)n1"
  result: "< 8 mL/min/kg"
- compound: "COC1CCN(C(=O)C[C@H]2CC[C@H](c3ccc(N4CCOc5ncnc(N)c5C4=O)cc3)CC2)CC1"
  result: "107 mL/min/kg"
- compound: "Nc1ncnc2c1C(=O)N(c1ccc([C@H]3CC[C@H](CC(=O)N4CCCC4)CC3)cc1)CCO2"
  result: "15 mL/min/kg"
- compound: "Nc1ncnc2c1C(=O)N(c1ccc([C@H]3CC[C@H](CC(=O)O)CC3)cc1)CCO2 [PF-04620110]"
  result: "< 8 mL/min/kg"
- compound: "Nc1ncnc2c1C(=O)N(c1ccc([C@H]3CC[C@H](CC(=O)N4CC(O)C4)CC3)cc1)CCO2"
  result: "< 8 mL/min/kg"
- compound: "Nc1ncnc2c1C(=O)N(c1ccc(C3CCN(C(=O)c4ccno4)CC3)cc1)CCO2"
  result: "13 mL/min/kg"
- compound: "Nc1ncnc2c1C(=O)N(c1ccc(C3CCN(C(=O)[C@H]4CC[C@@H](O)CC4)CC3)cc1)CCO2"
  result: "< 8 mL/min/kg"
- compound: "Cc1nc(N)c2c(n1)OCCN(c1ccc([C@H]3CC[C@H](CC(=O)O)CC3)cc1)C2=O"
  result: "< 8 mL/min/kg"
- compound: "CCNC(=O)C[C@H]1CC[C@H](c2ccc(N3CCOc4ncnc(N)c4C3=O)cc2)CC1"
  result: "< 8 mL/min/kg"

---

# measurement-notes: Lipophilicity, log D of the compound
# Type: physicochemical
# study-conditions: octanol/water

- compound: "Cc1noc(C[C@H]2CC[C@H](c3ccc(N4CCOc5ncnc(N)c5C4=O)cc3)CC2)n1"
  logD: 2.3
